Target: T1, full-length beta-Catenin (Uniprot ID P35222) (Homo sapiens (Human), UniProt P35222 1-781)
T1 construct: also called bCat; B-Catenin
T1 sequence: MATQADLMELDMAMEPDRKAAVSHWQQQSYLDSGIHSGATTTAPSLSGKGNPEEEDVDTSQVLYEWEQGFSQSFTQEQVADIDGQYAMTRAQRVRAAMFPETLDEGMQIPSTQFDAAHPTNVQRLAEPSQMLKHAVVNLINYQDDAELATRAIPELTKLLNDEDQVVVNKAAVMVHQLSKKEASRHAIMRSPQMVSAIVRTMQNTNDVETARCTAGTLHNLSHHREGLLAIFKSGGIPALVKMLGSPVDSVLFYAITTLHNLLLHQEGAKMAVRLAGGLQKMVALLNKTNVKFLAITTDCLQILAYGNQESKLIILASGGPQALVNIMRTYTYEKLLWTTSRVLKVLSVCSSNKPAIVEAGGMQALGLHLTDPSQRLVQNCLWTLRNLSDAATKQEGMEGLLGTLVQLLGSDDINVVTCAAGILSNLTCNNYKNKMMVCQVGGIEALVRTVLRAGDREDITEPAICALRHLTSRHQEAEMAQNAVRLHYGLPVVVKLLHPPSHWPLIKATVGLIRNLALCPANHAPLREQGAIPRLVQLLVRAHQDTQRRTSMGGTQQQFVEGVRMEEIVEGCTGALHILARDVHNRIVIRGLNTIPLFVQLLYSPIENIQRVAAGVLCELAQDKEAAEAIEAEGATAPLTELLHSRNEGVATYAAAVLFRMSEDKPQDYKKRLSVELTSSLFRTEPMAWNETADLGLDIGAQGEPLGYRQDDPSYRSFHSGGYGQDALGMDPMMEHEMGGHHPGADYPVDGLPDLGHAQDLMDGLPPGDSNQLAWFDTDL
Experiment: fluorescence polarization competition; displacement of 5FAM-TCF4(10-53) from full-length beta-catenin
Starred links: 1 amine or outer side, 2 acyl side, 3 side chain; linkers in the order of their positions; H or OH if unused. Positions of bridges follow the written chain, without caps; N, C: chain ends. Non-standard residues stand in square brackets, D forms with d. Primed or numbered codes have the meaning given here. B5(5) = 2,2-bis(4-pentenyl)glycine, 2-amino-2-(pent-4-en-1-yl)hept-6-enoic acid (stitching residue), C=CCCCC(CCCC=C)(N[*:1])C(=O)[*:2]; B5(21) = 2-amino-2-(pent-4-en-1-yl)hept-6-enoic acid, bis(4-pentenyl)glycine (stitching residue), C=CCCCC(CCCC=C)(N[*:1])C(=O)[*:2]; (NHMe)AsnR = N4-methyl-L-asparagine, CNC(=O)C[C@H](N[*:1])C(=O)[*:2]; Bta = N[C@@H](Cc1csc2ccccc12)C(=O)O; αAllylPro = C=CC[C@@]1(C(=O)O)CCCN1; S8 = C=CCCCCCC[C@](C)(N)C(=O)O
Recorded pEC50 by entry
pEC50 is a log-scale quantity: -log10 of the concentration expressed in molar.

Look over these answered cases.
binder | measured_value
Ac-[αAllylPro]DL[B5(5)]DDAAFN[S8]F[Bta]H-NH2 (staple 1-4, 4-11) [I-564] | 7.44
Ac-[αAllylPro]DA[B5(21)][(NHMe)AsnR]DAAFV[S8]F[Bta]Q-NH2 (staple 1-4, 4-11, Stapled (stitched) peptide composition) [I-540] | 5.30

pEC50 recorded for this binder, XDVXDDAAFNXFXQ (not fully specified; Ac-PL3-Asp-Val-B5-Asp-Asp-Ala-Ala-Phe-Asn-S8-Phe-BztA-Gln-NH2; N-terminal acetyl, C-terminal amide; non-natural: PL3(1), B5(4), S8(11), BztA(13); staples PL3(1)-B5(4) and B5(4)-S8(11)) [I-567] , is 7.43
